# Assay Remarks: Toxicity liver stage against HepG2, at 10uM
# Assay type: cell-based
# Design: test concentration 10 uM, cell line HepG2-A16-CD81EGFP
# Conditions Used: human, HepG2-A16-CD81EGFP cells; read-out: INHIBITION
Experimental Readout: cytotoxicity at 10 µM
Quick note: unit goes after the number.

Worked examples, 8 molecules total:
N[C@H]1CN(S(=O)(=O)c2ccccc2)C[C@@H]1C1CC1
-14.3%
NC(=O)C1CCN(Cc2cccc(NC(=O)c3ccsc3)c2)CC1
18.7%
CCNC(=O)N(C)CCCc1n[nH]c(N)c1C#N
10.3%
CCNc1cc2c(nn1)CCN(C(=O)Cc1c(C)noc1C)C2
-8.89%
O=C1Nc2ccccc2C12CCN(Cc1nccs1)CC2
-0.243%
O=C(NCCc1cccnc1)NCCc1cccs1
-1.51%
CC(C)(C)NC(=O)c1cnc2n1CCCC2
-3.32%
COc1ccccc1-n1nc(CC(C)C)nc1Cc1nnc(N)s1
6.17%

Kindly review the next molecule as well.
Item under review: CNS(=O)(=O)c1cccc(CNC(=O)NCC2CCOC2)c1 (stereo not drawn) . Reported cytotoxicity at 10 µM? -9.97%

* * *

Consider the following molecules and their measured cytotoxicity at 10 µM readings.
# Assay Remarks: Toxicity liver stage against HepG2, at 10uM
# Format: cell-based
# Parameters: test concentration 10 uM, cell line HepG2-A16-CD81EGFP
# Conditions Used: human, HepG2-A16-CD81EGFP cells; read-out: INHIBITION
# value in %; strip the unit string

Worked examples, 6 molecules total:
CCN1CCOC(CNc2nccc(C(F)(F)F)n2)C1 (centres undefined)
5.31
CN1CCC(CN2CCC3(CCCN(Cc4ccoc4)C3)C2=O)CC1 (centres undefined)
-12.9
CCc1cc(N(C)CCC(O)c2ccccc2)n2nccc2n1 (centres undefined)
-1.14
O=C(Cc1c[nH]c2ccccc12)N1CCC(Nc2ccccc2)CC1
-12.9
CC1CCCN(C(=O)c2nnn(-c3ccc(C(F)(F)F)cc3)n2)C1 (centres undefined)
-3.43
O=C(NC1CC1)c1cc(Sc2ncccn2)ccn1
0.493

Item under review: Cc1ccc(Cl)cc1C(=O)N1CCC2(CC1)c1ccccc1[C@@H](N)[C@@H]2O . Reported cytotoxicity at 10 µM? -13.8

Could you do the same for Cc1nn(CC(C)C)cc1S(=O)(=O)N(C)Cc1nonc1C , please? 11.3

Could you do the same for CCc1nc(C2CCCN(c3ncccn3)C2)no1 (centres undefined) , please? -0.996

Could you do the same for CN1CCCCC1CCC(=O)NCCCn1ncc2ccccc21 (centres undefined) , please? -13.3

Could you do the same for CC(C)c1nnc(CN2CC(n3cccn3)Cc3ccccc32)o1 (centres undefined) , please? -146

Could you do the same for Cc1cc(C2CCN(S(=O)(=O)N(C)C)CC2)ccn1 , please? -13

Could you do the same for NC(=O)c1nc2c(s1)CCN(C(=O)Nc1cccc(Cl)c1)CC2 , please? 6.64

Could you do the same for Cc1cc(C)n(C2CCCN(C(=O)c3cnc4onc(C)c4c3)C2)n1 (centres undefined) , please? 5.17

Could you do the same for CCCc1c(C(=O)N2CCN(c3cnccn3)CC2)cnn1C , please? 9.77

Could you do the same for CC(C)CN1C(=O)COC[C@@H]1[C@H](O)c1ccc(NC(=O)C2CC2)cc1 , please? 5.76

Could you do the same for O=C(Cc1ccccn1)N1CCN(C(=O)c2cccc3[nH]ncc23)CC1 , please? -2.48

Could you do the same for COc1ccc(CN2C[C@@H]3CN(CCO)C[C@@H]3C2=O)cc1 , please? 9.27

Could you do the same for Cc1nc(C)n(C2CCCN(C(=O)c3cc4ccccc4n3C)C2)n1 (centres undefined) , please? -4.5

Could you do the same for Cc1c(F)cccc1S(=O)(=O)NC(C)(C)CN , please? 0.926

Could you do the same for Cc1nn(C)c(C)c1CCC(=O)OCC(=O)N1CCc2sccc2C1 , please? 0.927

* * *

# Assay Remarks: Toxicity liver stage against HepG2, at 10uM
# Format: cell-based
# Design: test concentration 10 uM, cell line HepG2-A16-CD81EGFP
# Conditions Used: human, HepG2-A16-CD81EGFP cells; read-out: INHIBITION
Experimental Readout: cytotoxicity at 10 µM (%)
# value in %; strip the unit string

Cc1ccc(N2CCC3(CCN(Cc4csc(C)n4)CC3)CC2)nn1
9.43

Item under review: O=C(NC1CC1)c1cc(Cl)ccc1-n1cnnn1 . Reported cytotoxicity at 10 µM? 3.73

Could you do the same for CC(C)NC(=O)N1CCN(CC2CC2)CC2(CC(=O)N(C)C2)C1 (configuration not stated) , please? -1.34

Could you do the same for COCCCNS(=O)(=O)c1ccc2c(c1)NC(=O)C(C)O2 (configuration not stated) , please? 1.52

Could you do the same for CSCC(=O)NS(=O)(=O)c1ccc2c(c1)OCCO2 , please? -9.69

* * *

# Assay Remarks: Toxicity liver stage against HepG2, at 10uM
# Format: cell-based
# Parameters: test concentration 10 uM, cell line HepG2-A16-CD81EGFP
# Conditions Used: human, HepG2-A16-CD81EGFP cells; read-out: INHIBITION
Consider the following compounds and their measured cytotoxicity at 10 µM readings.
# value in %; strip the unit string

c1ccc2oc(N3CCCCC3Cn3cncn3)nc2c1 (configuration not stated)
-7.59
CC(CC#N)N(C)Cc1ccc(F)cc1C#N (configuration not stated)
-6.69
CC(C)c1ccc(OCCC(=O)N2CCCC(C(N)=O)C2)cc1 (configuration not stated)
-11.7

Item under review: CO[C@H]1CCN(S(=O)(=O)c2cn(C)cn2)[C@H]1Cc1ccncc1 . Reported cytotoxicity at 10 µM? 9.43

Could you do the same for Cc1nc(C)n(CC2CCCN2CC(=O)Nc2cc(C)on2)n1 (configuration not stated) , please? -2.11

Could you do the same for Cc1cc(N2CCN(Cc3ccccc3)CC(O)C2)cc(C)n1 (configuration not stated) , please? -17.4

Could you do the same for CCS(=O)(=O)N1CCC(NC(=O)c2ccccc2O)CC1 , please? -7.27

Could you do the same for CCc1cc(NC2CCC(N)CC2)n2nc(C)c(C)c2n1 (configuration not stated) , please? -4.33

Could you do the same for CCCc1nc(C)c(C(=O)NCCNc2ncccc2C#N)s1 , please? -19.5

Could you do the same for CC(C)C(NC(N)=O)C(=O)NCc1ccc(N2CCCC2)nc1 (configuration not stated) , please? -16.9

Could you do the same for CC(C)CCS(=O)(=O)CC(=O)N1CCCC1c1cnn(C)c1 (configuration not stated) , please? 0.528

Could you do the same for CCc1ccc(NC(=O)N2Cc3c(CN(C)C)nn(C)c3C2)cc1 , please? 5.62

* * *

# Assay Remarks: Toxicity liver stage against HepG2, at 10uM
# Type: cell-based
# Design: test concentration 10 uM, cell line HepG2-A16-CD81EGFP
# Conditions Used: human, HepG2-A16-CD81EGFP cells; read-out: INHIBITION
Consider the following molecules and their measured cytotoxicity at 10 µM readings.
# value in %; strip the unit string

Worked examples, 10 molecules total:
Cc1cccc(-c2c[nH]c(C3CCCN3C(=O)c3cc(C)n[nH]3)n2)c1 (configuration not stated)
4
CC(C)N1CCCc2sc(C(=O)NC3CC3)nc21
-143
Cc1[nH]c(-c2ccccc2)nc1C(=O)N1CCc2[nH]cnc2C1C(=O)O (configuration not stated)
2.43
CCC(O)CN1CCN(C(=O)c2ccnc(N(C)C)c2)CC1 (configuration not stated)
-7.87
CCCc1nc(CN2CCCC2c2cnn(C)c2)cs1 (configuration not stated)
0.441
CN(C)c1ncccc1NC(=O)COC1CCCC1
0.189
O=C(C1CCCN(C2CCOCC2)C1)N1CCc2ncccc2C1 (configuration not stated)
4.21
COc1cc(F)c(C(=O)NCc2ccon2)c(F)c1
2.13
CCN1CCN(C)C2(CCN(Cc3ccsc3)CC2)C1=O
0.317
Cc1nsc(NC(=O)N2CCN(Cc3ccccc3F)C(=O)C2)n1
-4.25

Item under review: CS(=O)(=O)NCc1ncn2c1CN(C(=O)C1CCCO1)CCC2 (configuration not stated) . Reported cytotoxicity at 10 µM? -110

Could you do the same for Cc1cc(C)c(CNC(=O)NCc2nnc3n2CCCCC3)c(=O)[nH]1 , please? -1.34

* * *

# Assay Remarks: Toxicity liver stage against HepG2, at 10uM
# Assay type: cell-based
# Parameters: test concentration 10 uM, cell line HepG2-A16-CD81EGFP
# Conditions Used: human, HepG2-A16-CD81EGFP cells; read-out: INHIBITION
Consider the following molecules and their measured cytotoxicity at 10 µM readings.
# value in %; strip the unit string

Worked examples, 5 molecules total:
COc1ccc(NC(=O)C2OC(c3cccs3)=NN2C(C)=O)cc1 (stereo not drawn)
-1.6
CCCn1ncc(-c2nc3c(cnn3CC)[nH]2)c1C
4.05
Cc1csc(CNCc2c(C)nn(C)c2N2CCOCC2)n1
-9.07
O=C(COc1ccc(-n2cccn2)nn1)NC1CCCCC1
-1.03
Cc1cnc(-c2nc(O)c3c(n2)CN(C(=O)C2CCCO2)CC3)cn1 (stereo not drawn)
-0.661

Item under review: CCS(=O)(=O)CC(=O)Nc1ccc2oc(C3CC3)nc2c1 . Reported cytotoxicity at 10 µM? -5.4

Could you do the same for Cc1ccc(-c2cn[nH]c2C2CCCN(c3cnccn3)C2)cc1 (stereo not drawn) , please? 73.6

Could you do the same for O=C(NCC1CCC1)c1ccnc(-n2ccnc2)c1 , please? -3.67

Could you do the same for CS(=O)(=O)CC(=O)N1C[C@H]2CCC[C@@]2(COCc2ccncc2)C1 , please? -101

Could you do the same for O=C1[C@H]2CN(C(=O)[C@H]3CCCO3)C[C@H]2CN1CCN1CCCC1 , please? -3.66

Could you do the same for CCN(c1ccc(C(=O)NCCN2CCOCC2)cc1)S(=O)(=O)CC , please? 6.89

Could you do the same for CCn1nc(CC(C)C)cc1C(=O)N1CCC(n2cnnc2)CC1 , please? -7.71

Could you do the same for O=C(NCc1nc(C2CC2)no1)N1CCOC(c2ccccc2F)C1 (stereo not drawn) , please? -53.7

Could you do the same for CC1COCCN1Cc1nc(-c2cccc(C(F)(F)F)c2)no1 (stereo not drawn) , please? -13.9
